Source of measurements: ChEMBL document CHEMBL1156720

HC50 at 0.5 h values by entry
- method.description: Toxicity assessed as hemolytic activity in human red blood cells after 30 mins
- Type: cell-based, Erythrocyte
- experimental.context: read-out: HD50
Square brackets hold non-standard residues; d marks the D form. Peptide text beside a SMILES is read from it. 1Nal = N[C@@H](Cc1cccc2ccccc12)C(=O)O; 2Nal = N[C@@H](Cc1ccc2ccccc2c1)C(=O)O; hPhe = N[C@@H](CCc1ccccc1)C(=O)O
measurement.type: HC50 at 0.5 h (µM)

[[record]]
compound = "CSCC[C@H](NC(=O)[C@@H](NC(=O)CNC(=O)[C@H](CC(C)C)NC(=O)[C@H](CCCCN)NC(=O)[C@H](CCCCN)NC(=O)[C@H](CC(C)C)NC(=O)[C@H](CCSC)NC(=O)[C@@H](NC(=O)[C@H](CCCCN)NC(=O)[C@H](CCc1ccccc1)NC(=O)[C@H](CC(C)C)NC(=O)[C@H](C)N)[C@@H](C)O)[C@@H](C)O)C(=O)N[C@@H](C)C(=O)N[C@@H](CC(C)C)C(N)=O (H-AL[hPhe]KTMLKKLGTMAL-NH2)"
measurement_type = "HC50 at 0.5 h"
sign = ">"
assay_result = 100

[[record]]
compound = "CSCC[C@H](NC(=O)[C@@H](NC(=O)CNC(=O)[C@H](CC(C)C)NC(=O)[C@H](CCCCN)NC(=O)[C@H](CCCCN)NC(=O)[C@H](CC(C)C)NC(=O)[C@H](CCSC)NC(=O)[C@@H](NC(=O)[C@H](CCCCN)NC(=O)[C@H](Cc1ccc2ccccc2c1)NC(=O)[C@H](CC(C)C)NC(=O)[C@H](C)N)[C@@H](C)O)[C@@H](C)O)C(=O)N[C@@H](C)C(=O)N[C@@H](CC(C)C)C(N)=O (H-AL[2Nal]KTMLKKLGTMAL-NH2)"
measurement_type = "HC50 at 0.5 h"
sign = ">"
assay_result = 100

[[record]]
compound = "CSCC[C@H](NC(=O)[C@@H](NC(=O)CNC(=O)[C@H](CC(C)C)NC(=O)[C@H](CCCCN)NC(=O)[C@H](CCCCN)NC(=O)[C@H](CC(C)C)NC(=O)[C@H](CCSC)NC(=O)[C@@H](NC(=O)[C@H](CCCCN)NC(=O)[C@H](Cc1cccc2ccccc12)NC(=O)[C@H](CC(C)C)NC(=O)[C@H](C)N)[C@@H](C)O)[C@@H](C)O)C(=O)N[C@@H](C)C(=O)N[C@@H](CC(C)C)C(N)=O (H-AL[1Nal]KTMLKKLGTMAL-NH2)"
measurement_type = "HC50 at 0.5 h"
sign = "="
assay_result = 75

[[record]]
compound = "CSCC[C@H](NC(=O)[C@@H](NC(=O)CNC(=O)[C@H](CC(C)C)NC(=O)[C@H](CCCCN)NC(=O)[C@H](CCCCN)NC(=O)[C@H](CC(C)C)NC(=O)[C@H](CCSC)NC(=O)[C@@H](NC(=O)[C@H](CCCCN)NC(=O)[C@H](Cc1cccc2ccccc12)NC(=O)[C@H](CC(C)C)NC(=O)[C@H](C)NC(=O)[C@@H](N)CCCCN)[C@@H](C)O)[C@@H](C)O)C(=O)N[C@@H](C)C(=O)N[C@@H](CC(C)C)C(N)=O (H-KAL[1Nal]KTMLKKLGTMAL-NH2)"
measurement_type = "HC50 at 0.5 h"
sign = "="
assay_result = 80


====

- Test system: Staphylococcus aureus
- method.description: Antibacterial activity against Staphylococcus aureus Cowan 1 NCTC 8530 after 3 hrs by microdilution serial twofold assay
- Format: functional
- experimental.context: Cowan 1, 3 h, read-out: LD50 (the source's name)
Square brackets hold non-standard residues; d marks the D form. Peptide text beside a SMILES is read from it. 1Nal = N[C@@H](Cc1cccc2ccccc12)C(=O)O; hPhe = N[C@@H](CCc1ccccc1)C(=O)O
measurement.type: LC50 (nM)

[[record]]
molecule = "CSCC[C@H](NC(=O)[C@@H](NC(=O)CNC(=O)[C@H](CC(C)C)NC(=O)[C@H](CCCCN)NC(=O)[C@H](CCCCN)NC(=O)[C@H](CC(C)C)NC(=O)[C@H](CCSC)NC(=O)[C@@H](NC(=O)[C@H](CCCCN)NC(=O)[C@H](CCc1ccccc1)NC(=O)[C@H](CC(C)C)NC(=O)[C@H](C)N)[C@@H](C)O)[C@@H](C)O)C(=O)N[C@@H](C)C(=O)N[C@@H](CC(C)C)C(N)=O (H-AL[hPhe]KTMLKKLGTMAL-NH2)"
subject_of_test = "Staphylococcus aureus"
measurement_type = "LC50"
assay_result = 9300

[[record]]
molecule = "CSCC[C@H](NC(=O)[C@@H](NC(=O)CNC(=O)[C@H](CC(C)C)NC(=O)[C@H](CCCCN)NC(=O)[C@H](CCCCN)NC(=O)[C@H](CC(C)C)NC(=O)[C@H](CCSC)NC(=O)[C@@H](NC(=O)[C@H](CCCCN)NC(=O)[C@H](Cc1cccc2ccccc12)NC(=O)[C@H](CC(C)C)NC(=O)[C@H](C)NC(=O)[C@@H](N)CCCCN)[C@@H](C)O)[C@@H](C)O)C(=O)N[C@@H](C)C(=O)N[C@@H](CC(C)C)C(N)=O (H-KAL[1Nal]KTMLKKLGTMAL-NH2)"
subject_of_test = "Staphylococcus aureus"
measurement_type = "LC50"
assay_result = 800

[[record]]
molecule = "CSCC[C@H](NC(=O)[C@@H](NC(=O)CNC(=O)[C@H](CC(C)C)NC(=O)[C@H](CCCCN)NC(=O)[C@H](CCCCN)NC(=O)[C@H](CC(C)C)NC(=O)[C@H](CCSC)NC(=O)[C@@H](NC(=O)[C@H](CCCCN)NC(=O)[C@H](Cc1cccc2ccccc12)NC(=O)[C@H](CC(C)C)NC(=O)[C@H](C)N)[C@@H](C)O)[C@@H](C)O)C(=O)N[C@@H](C)C(=O)N[C@@H](CC(C)C)C(N)=O (H-AL[1Nal]KTMLKKLGTMAL-NH2)"
subject_of_test = "Staphylococcus aureus"
measurement_type = "LC50"
assay_result = 2400


====

- System: Stenotrophomonas maltophilia
- method.description: Antibacterial activity against Stenotrophomonas maltophilia FC after 24 hrs by microdilution serial twofold assay
- Assay type: functional
measurement.type: MIC

[[record]]
substance = "H-ALLKTMLKKLGTMAL-NH2"
assay_result = "> 48 µM"

[[record]]
substance = "H-ALWKTMLKKLGTMAL-NH2"
assay_result = "> 45 µM"

[[record]]
substance = "H-KALWKTMLKKLGTMAL-NH2"
assay_result = "21 µM"

[[record]]
substance = "H-ALYKTMLKKLGTMAL-NH2"
assay_result = "> 45 µM"

[[record]]
substance = "H-ALHKTMLKKLGTMAL-NH2"
assay_result = "> 45 µM"

[[record]]
substance = "H-ALFKTMLKKLGTMAL-NH2"
assay_result = "> 46 µM"


====

Items are presented alongside their recorded LC50.
- Test system: Staphylococcus aureus
- method.description: Antibacterial activity against Staphylococcus aureus Cowan 1 NCTC 8530 after 3 hrs by microdilution serial twofold assay
- Type: functional
- experimental.context: Cowan 1, 3 h, read-out: LD50 (the source's name)
measurement.type: LC50 (µM)

[[record]]
substance = "H-ALWKTMLKKLGTMA-NH2"
measurement_type = "LC50"
sign = "="
assay_result = 28.3

[[record]]
substance = "H-ALFKTMLKKLGTMAL-NH2"
measurement_type = "LC50"
sign = "="
assay_result = 16.7

[[record]]
substance = "H-KALWKTMLKKLGTMAL-NH2"
measurement_type = "LC50"
sign = "="
assay_result = 2.7

[[record]]
substance = "H-ALHKTMLKKLGTMAL-NH2"
measurement_type = "LC50"
sign = ">"
assay_result = 44.9

[[record]]
substance = "H-ALWKTMLKKLGTMALHAGK-NH2"
measurement_type = "LC50"
sign = "="
assay_result = 10.7

[[record]]
substance = "H-ALYKTMLKKLGTMAL-NH2"
measurement_type = "LC50"
sign = ">"
assay_result = 46.7

[[record]]
substance = "H-ALWKTMLKKLGTM-NH2"
measurement_type = "LC50"
sign = "="
assay_result = 50.6

[[record]]
substance = "H-ALWKTMLKKLGTMALHAGKAALGAAADTI-NH2"
measurement_type = "LC50"
sign = "<"
assay_result = 1.5

[[record]]
substance = "H-ALWKTMLKKLGTMAL-NH2"
measurement_type = "LC50"
sign = "="
assay_result = 2.7

[[record]]
substance = "H-ALLKTMLKKLGTMAL-NH2"
measurement_type = "LC50"
sign = "="
assay_result = 12

[[record]]
substance = "H-ALWKTMLKKLGT-NH2"
measurement_type = "LC50"
sign = "="
assay_result = 54


====

- Tested on: Staphylococcus aureus
- method.description: Antibacterial activity against Staphylococcus aureus Cowan 1 NCTC 8530 after 3 hrs by microdilution serial twofold assay
- Type: functional
- experimental.context: Cowan 1, 3 h, read-out: LD50 (the source's name)
Square brackets hold non-standard residues; d marks the D form. Peptide text beside a SMILES is read from it. 2Nal = N[C@@H](Cc1ccc2ccccc2c1)C(=O)O
measurement.type: LC50 (µM)

[[record]]
compound = "CSCC[C@H](NC(=O)[C@@H](NC(=O)CNC(=O)[C@H](CC(C)C)NC(=O)[C@H](CCCCN)NC(=O)[C@H](CCCCN)NC(=O)[C@H](CC(C)C)NC(=O)[C@H](CCSC)NC(=O)[C@@H](NC(=O)[C@H](CCCCN)NC(=O)[C@H](Cc1ccc2ccccc2c1)NC(=O)[C@H](CC(C)C)NC(=O)[C@H](C)N)[C@@H](C)O)[C@@H](C)O)C(=O)N[C@@H](C)C(=O)N[C@@H](CC(C)C)C(N)=O (H-AL[2Nal]KTMLKKLGTMAL-NH2)"
measurement_type = "LC50"
unit_string = "µM"
assay_result = 2.5

